Tested on: SK-MEL-2 melanoma
Assay: NCI tumour cell line growth inhibition, 48 h
Peptide text beside a SMILES is read from it. * marks the point of attachment. Boc = CC(C)(C)OC(=O)*; OBn = c1ccc(CO*)cc1
Decision: TGI >= 40 µM yields 1, all other cases yield -1.

-- ask Check if TGI >= 40 µM (inclusive). Item: Cc1ccc(S(=O)(=O)NC2C(=O)c3ccccc3C(=O)C2n2cnc3ccccc32)cc1 (stereo not given)
-- reply 1

-- ask Check if TGI >= 40 µM (inclusive). Item: "Cc1nc2cc(N)c(F)cc2[nH]1"
-- reply 1

-- ask Check if TGI >= 40 µM (inclusive). Item: "CC(C)CNc1nc(-c2ccccc2)nc2ccccc12"
-- reply 1

-- ask Check if TGI >= 40 µM (inclusive). Item: "O=c1cc(CBr)c2ccc(O)cc2o1"
-- reply 1

-- ask Check if TGI >= 40 µM (inclusive). Item: "O=c1oc2ccccc2c(O)c1C(c1ccc(/C=C/c2ccccc2)cc1)c1c(O)c2ccccc2oc1=O"
-- reply 1

-- ask Check if TGI >= 40 µM (inclusive). Item: CC(=O)OC1COC(n2c(-c3ccc(Cl)cc3)cc(-c3ccccc3)c(C#N)c2=S)C(OC(C)=O)C1OC(C)=O (stereo not given)
-- reply -1

-- ask Check if TGI >= 40 µM (inclusive). Item: "NC1CCCCC1N.O=S(=O)([O-])CCCN1CCOCC1.O=S(=O)([O-])CCCN1CCOCC1.[Pt+4]"
-- reply 1

-- ask Check if TGI >= 40 µM (inclusive). Item: "COc1ccc(C2=C(c3ccc(OC)c(OC)c3)C(=O)OC2)cc1"
-- reply 1

-- ask Check if TGI >= 40 µM (inclusive). Item: "CCCCc1ccc(-n2c3nc(=O)n(C)c(=O)c-3nc3ccccc32)cc1"
-- reply -1

-- ask Check if TGI >= 40 µM (inclusive). Item: "CCOC(=O)C1=C(Nc2ccc(Cl)cc2Cl)OC/C1=N\NS(=O)(=O)c1ccc(C)cc1"
-- reply 1

-- ask Check if TGI >= 40 µM (inclusive). Item: "CN(C)CC/C(=N\Nc1ccccc1)c1ccccc1"
-- reply -1

-- ask Check if TGI >= 40 µM (inclusive). Item: Cc1ccc(SCC(CF)OCn2cc(F)c(=O)[nH]c2=O)cc1 (stereo not given)
-- reply 1

-- ask Check if TGI >= 40 µM (inclusive). Item: COc1ccc2c(c1)N=C1CSC(c3cccc(Br)c3)N1C2 (stereo not given)
-- reply -1

-- ask Check if TGI >= 40 µM (inclusive). Item: "COc1cccc2c(Nc3ccc(S(=O)(=O)NC(C)=O)cc3)c3ccc([N+](=O)[O-])cc3nc12"
-- reply 1

-- ask Check if TGI >= 40 µM (inclusive). Item: "O=C([CH-]C(=O)c1ccccc1)c1ccccc1.O=C([CH-]C(=O)c1ccccc1)c1ccccc1.O=C([CH-]C(=O)c1ccccc1)c1ccccc1.[OH3+].[Y+3]"
-- reply -1

-- ask Check if TGI >= 40 µM (inclusive). Item: C#C[C@]1(O)CCC2C3CCc4cc(Oc5nc(F)nc(-c6c7cc8ccccc8cc7c7n6CCS7)n5)ccc4C3CCC21C (stereo not given in full)
-- reply 1

-- ask Check if TGI >= 40 µM (inclusive). Item: CC(NC(=O)CNC(=O)OC(C)(C)C)C(=O)NC(Cc1ccccc1)C(=O)OCc1ccccc1 (stereo not drawn) (Boc-Gly-Ala-Phe-OBn; configuration not given here)
-- reply 1

-- ask Check if TGI >= 40 µM (inclusive). Item: "C=CCN1C=CC(=O)[C@H](O[Si](C)(C)C(C)(C)C)[C@@H]1/C=C/c1ccccc1"
-- reply -1

-- ask Check if TGI >= 40 µM (inclusive). Item: C=CCC(C(=O)O)c1ccccc1 (stereo not given)
-- reply 1

-- ask Check if TGI >= 40 µM (inclusive). Item: Cc1ccc(C(=O)C(Cl)C(Cl)c2ccc(C)cc2)cc1 (stereo not given)
-- reply -1

-- ask Check if TGI >= 40 µM (inclusive). Item: "N#Cc1c(Cl)c2ccccc2n2c1nc1ccccc12"
-- reply 1

-- ask Check if TGI >= 40 µM (inclusive). Item: COC(=O)C12CC(c3ccccc31)C1C(=O)OC(=O)C12 (stereo not given)
-- reply 1

-- ask Check if TGI >= 40 µM (inclusive). Item: COc1cc(C2=C(C#N)C(N)OC3=C2COc2ccccc23)cc(OC)c1OC (stereo not given)
-- reply 1

-- ask Check if TGI >= 40 µM (inclusive). Item: CCOC(=O)C1C(c2ccc(OC)cc2)c2c([nH][nH]c2=O)CC1(O)OCC (stereo not given)
-- reply 1

-- ask Check if TGI >= 40 µM (inclusive). Item: "COc1ccc2cc(/C=N\NC(=O)Nc3cccc4ccccc34)ccc2c1"
-- reply 1

-- ask Check if TGI >= 40 µM (inclusive). Item: "O=[N+]([O-])c1ccc(Nc2nc3ccccc3s2)cc1"
-- reply 1

-- ask Check if TGI >= 40 µM (inclusive). Item: "COc1ccc(C(c2c[nH]c3ccc(Br)cc23)c2c[nH]c3ccc(Br)cc23)cc1"
-- reply -1

-- ask Check if TGI >= 40 µM (inclusive). Item: "O=C(CC12CC3CC(CC(C3)C1)C2)NCCOCCOCCOCCNC(=O)c1cc2c(o1)C(=O)c1ccccc1C2=O"
-- reply -1

-- ask Check if TGI >= 40 µM (inclusive). Item: COc1cc(C2C3=C(COC3=O)Oc3cc4c(cc32)OCO4)ccc1OC(C)=O (stereo not given)
-- reply 1

-- ask Check if TGI >= 40 µM (inclusive). Item: CCC1=CC2Cc3nc4cc(Cl)ccc4c(N)c3C(C1)C2 (stereo not given)
-- reply -1

-- ask Check if TGI >= 40 µM (inclusive). Item: CCCC(C)C[C@@H](C)CC(C)/C=C(\C)c1oc(=O)c(C)c(O)c1C (stereo not given in full) (tested in a mixture with another compound)
-- reply -1

-- ask Check if TGI >= 40 µM (inclusive). Item: "N=C(N)c1csc([C@@H]2O[C@H](CO)[C@@H](O)[C@H]2O)n1"
-- reply 1

-- ask Check if TGI >= 40 µM (inclusive). Item: "Cc1cccc(Cl)c1NC(=O)/C=C/c1ccccc1"
-- reply 1

-- ask Check if TGI >= 40 µM (inclusive). Item: "CN(C)CCCCN1c2ccccc2Sc2cc(N=[N+]=[N-])ccc21"
-- reply -1

-- ask Check if TGI >= 40 µM (inclusive). Item: "Cc1ccc(NC(=O)CCC/C(CC(=O)c2ccc(Br)cc2)=N/NC(=O)CC#N)cc1"
-- reply 1

-- ask Check if TGI >= 40 µM (inclusive). Item: "COc1cc(C=Nc2ccc(C(C)C)cc2)cc(OC)c1OC"
-- reply 1

----------
System: NCI-H23 lung
Experiment: NCI tumour cell line growth inhibition, 48 h; in the data active means GI50 below about 0.43 µM; inactive means the rest
Respond using exactly one of the listed classes: label 1 (active), label 0 (inactive)

-- ask Give the logged outcome of this assay for the following compound: O=C([O][Hg][CH2]C1COCC([CH2][Hg][O]C(=O)c2ccccc2)O1)c1ccccc1 (centres undefined)
-- reply label 0

-- ask Give the logged outcome of this assay for the following compound: "O=C([CH-]C(=O)c1ccccc1)c1ccccc1.O=C([CH-]C(=O)c1ccccc1)c1ccccc1.O=C([CH-]C(=O)c1ccccc1)c1ccccc1.[OH3+].[Y+3]"
-- reply label 0

-- ask Give the logged outcome of this assay for the following compound: "O=c1[nH]ccc2nc(N3CCC(O)CC3)nc(Nc3cccc(C(F)(F)F)c3)c12"
-- reply label 0

-- ask Give the logged outcome of this assay for the following compound: "NC1CCCCC1N.O=S(=O)([O-])CCCN1CCOCC1.O=S(=O)([O-])CCCN1CCOCC1.[Pt+4]"
-- reply label 0

-- ask Give the logged outcome of this assay for the following compound: "c1cc(OCCN2CCCCC2)ccc1CNc1ccc2nc(CCC3CCCCC3)[nH]c2c1"
-- reply label 0

-- ask Give the logged outcome of this assay for the following compound: "Cc1cc(I)cc(CN(C)CCN2CCCC2)c1O"
-- reply label 0

-- ask Give the logged outcome of this assay for the following compound: COc1cc2c(cc1OCCCCCCN1CCN(c3ncnc4ccccc34)CC1)N=CC1CCCN1C2=O (centres undefined)
-- reply label 1

-- ask Give the logged outcome of this assay for the following compound: "O=C(N/N=C/c1ccccc1Cl)c1ccccc1Nc1ccnc(C(F)(F)F)c1"
-- reply label 0

-- ask Give the logged outcome of this assay for the following compound: "CCCN1CCN(c2ccc3nc(-c4ccc5nc(-c6cc(OC)ccc6OC)[nH]c5c4)[nH]c3c2)CC1"
-- reply label 0

----------
Tested on: UACC-62 melanoma
Assay: NCI tumour cell line growth inhibition, 48 h
Please provide measured TGI for the entries that follow.

Recorded TGI (compound C=CCC(C(=O)O)c1ccccc1 (stereo unspecified) ): > 100 µM

Recorded TGI (compound "O=C(O)c1ccc(Nc2nc3ccccc3nc2-c2cccs2)cc1" ): > 100 µM

Recorded TGI (compound "O=C(c1cccs1)N(C(=S)N1CCN(c2ccccn2)CC1)C1CCCCC1" ): > 100 µM

Recorded TGI (compound "O=c1[nH]ccc2nc(N3CCC(O)CC3)nc(Nc3cccc(C(F)(F)F)c3)c12" ): 6.95 µM

Recorded TGI (compound "CCn1c(O)c(C=N)c(=O)n(CC)c1=O" ): > 100 µM

Recorded TGI (compound Cc1ccc(Nc2nc(N)nc3c2ncn3C2OC(CO)C(O)C2O)cc1 (stereo unspecified) ): > 100 µM
